- TEST METHOD NOTES: NCI Yeast Anticancer Drug Screen. Data for the rad50 strain (AID 155);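 further: 0% = growth of vehicle-only cultures of the same strain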
- CONDITION DETAILS: S. cerevisiae rad50 strain growth inhibition; at 11.0 µM
About 79,000 compounds went through this panel and 15% of them were active in at least one assay; those are over-represented in the sample as a whole. Calls of active or inactive are those of the source. No stated cut-off is given here; in the data, active means growth inhibition above about 70%; inactive means the rest.
Classes used: active, inactive

| MOLECULE | CATEGORY |
| --- | --- |
| O=C(O)C(=Cc1ccc(-c2ccccc2)cc1)C(=O)O | inactive |
| COC(=O)C(=O)c1c(-c2ccc(Cl)c(Cl)c2)[nH]c2[nH]n(-c3ccccc3)c(=O)c2c1=O | inactive |
| CSc1nc(-c2ccccc2)nc(=[N+]2CCOCC2)s1 | active |
| NC(CCCCCCCCCCCCC(N)C(=O)c1ccccc1)C(=O)c1ccccc1 (stereo unspecified) | active |
| O=C1Nc2ccc(Br)cc2C1=Nc1ccc(Cl)cc1 | inactive |
| N#[N+]c1c([O-])c2ccccc2c2ccccc12 | active |
| NC(=S)N1N=C2c3ccccc3CC[C@H]2[C@@H]1c1ccc(Cl)cc1 | inactive |
| CC1(C)CC(=O)C(C(=O)Nc2cccs2)=C(O)C1 | inactive |
| Cc1cc(C)c2[s+]snc2c1 | inactive |
| O=CC1(F)CC1(c1ccccc1)c1ccccc1 (stereo unspecified) | inactive |
| COc1ccc(C(C)c2cc3c(cc2OCC(C)=O)OCO3)cc1 (stereo unspecified) | inactive |

###

- TEST METHOD NOTES: NCI Yeast Anticancer Drug Screen. Data for the CLN2oe strain (AID 163);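 further: 0% = growth of vehicle-only control cultures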
- CONDITION DETAILS: S. cerevisiae CLN2oe strain, at 11.0 µM, stronger effect = higher value
Compounds without any hit were thinned out: in the full panel of roughly 79,000, 15% have a hit.

| MOLECULE | MEASUREMENT UNITS | growth inhibition |
| --- | --- | --- |
| CCc1c(Cl)c(C)c(Cl)c(O)c1Cl | % | 11 |
| S=C1N(c2ccc(Cl)cc2)C2=C(N=Nc3ccccc3)C(=Nc3ccccc3S2)N1c1ccccn1 | % | 3 |
| N#CC1OB(O)c2ccccc21 (configuration not stated) | % | 1 |
| Cc1c2cc[n+](CCO)cc2c(C)c2c1[nH]c1ccc(O)cc12 | % | -17 |
| ClCCCOc1c(Cl)cc(Cl)cc1Cl | % | 0 |
| COc1ccccc1NC(=O)c1ccc(Cl)cc1 | % | -6 |
| CC(=O)Oc1ccc2c(c1)Cc1cc(N3C(=O)C=CC3=O)ccc1-2 | % | 35 |
| Brc1ccc(B2Nc3ccccc3N2)cc1 | % | 29 |
| O=C(O)c1ccccc1C(=O)OC1CCc2ccccc2C1 (configuration not stated) | % | -11 |
| COc1ccc(-c2cc(-c3cc(C)cc(Cl)c3O)nc3[nH]c(=S)[nH]c(=S)c23)cc1 | % | -3 |
| Cc1cc(O)c(C(C)C)cc1SC#N | % | 68 |
| CC(C)C(c1ccccc1)c1ccccc1 | % | 2 |

###

- TEST METHOD NOTES: NCI Yeast Anticancer Drug Screen. Data for the cln2 rad14 strain (AID 165);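 further: 0% = growth equal to vehicle treated cultures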
- CONDITION DETAILS: S. cerevisiae cln2 rad14 strain, at 50.0 µM (retest, dose inferred, filed as 5.0)
This is part of a sample that, as a whole, favours compounds with a hit. Of some 79,000 tested, about 15% had one in any assay. Activity calls are given as the source filed them. Cut-off read from the data, not from the text of the source: active = growth inhibition above about 70%; inactive = the rest.
Classes used: active, inactive

| COMPOUND | CATEGORY |
| --- | --- |
| CN(C)N=Nc1ccc(N(C)C)cc1 | inactive |
| O=C(/N=N/C(=O)Oc1ccccc1)Oc1ccccc1 | inactive |
| Nc1cc2ccccc2cc1N | active |
| CCOC(=O)CC1(C)/C(=N\Nc2ccc([N+](=O)[O-])cc2[N+](=O)[O-])CCC2C1CCC1(C)C(C(C)CCCC(C)C)CCC21 (stereo not given) | inactive |
| COc1ccc(C(OCC2OC(n3cnc4c(=O)n(Cc5ccccc5[N+](=O)[O-])nnc43)C(O)C2O)(c2ccccc2)c2ccc(OC)cc2)cc1 (stereo not given) | active |
| O=C1c2cccc3cccc(c23)C(=O)N1CCNCCN1C(=O)c2cccc3cccc(c23)C1=O | inactive |
| CC1(C)OC(=O)C(=Cc2ccc([N+](=O)[O-])s2)C(=O)O1 | active |
| CC1=NN(C(=O)c2ccccc2O)C(=O)/C1=C/c1ccco1 | active |
| CCCCN(CCC#N)c1ccc(/C=C/c2ccnc3ccccc23)cc1 | inactive |
| Nc1ccc2c(c1)C(=O)c1c(F)cccc1-2 | inactive |
